System: Hs-445 (Non-Cancerous)
Test: combination Emax (second highest fraction inhibited in the dose matrix, 72 h); higher = more inhibition; extreme values may be limits of the assay
quantity-name: combination Emax

compound: COc1nnc2ccc(N3CCC(c4ccc(OCCN5CCN(C)C(=O)[C@H]5C)cc4)CC3)nn12 [AZD5153] + CN(CC[C@H](CSC1=CC=CC=C1)NC2=C(C=C(C=C2)S(=O)(=O)NC(=O)C3=CC=C(C=C3)N4CCC(CC4)[C@H](C5=CC=CC=C5C6=CC=C(C=C6)Cl)O)S(=O)(=O)C(F)(F)F)CCO [AZD4320] (first compound max 1 µM, 7x7, partner max 1 µM)
value-reported: 0.889
--
compound: COc1cccc(OCCCN)c1-c1cc(Nc2cnc(C#N)cn2)n[nH]1 [Prexasertib] + C=CCn1c(=O)c2cnc(Nc3ccc(N4CCN(C)CC4)cc3)nc2n1-c1cccc(C(C)(C)O)n1 [AZD1775] (first compound max 1 µM, partner max 1 µM)
value-reported: 0.947
--
compound: Cc1c2c(nn1C)CSCc1cc(n(C)n1)CSc1cc(c3ccccc3c1)OCCCc1c(C(=O)O)n(C)c3c-2c(Cl)ccc13 [AZD5991] + CC1(C)CCC(CN2CCN(c3ccc(C(=O)NS(=O)(=O)c4ccc(NCC5CCOCC5)c([N+](=O)[O-])c4)c(Oc4cnc5[nH]ccc5c4)c3)CC2)=C(c2ccc(Cl)cc2)C1 [Venetoclax] (first compound max 1 µM, 7x7, partner max 1 µM)
value-reported: 0.962
--
compound: CC1(C)CCC(CN2CCN(c3ccc(C(=O)NS(=O)(=O)c4ccc(NCC5CCOCC5)c([N+](=O)[O-])c4)c(Oc4cnc5[nH]ccc5c4)c3)CC2)=C(c2ccc(Cl)cc2)C1 [Venetoclax] + Cc1cc2ncnn2cc1Nc1ncc2c(n1)n(C1CCOCC1)c(=O)n2C [AZD7648] (first compound max 1 µM, 7x7, partner max 10 µM)
value-reported: 0.405
--
compound: Cn1cnc2c(F)c(Nc3ccc(Br)cc3Cl)c(C(=O)NOCCO)cc21 [Selumetinib] + C=CCn1c(=O)c2cnc(Nc3ccc(N4CCN(C)CC4)cc3)nc2n1-c1cccc(C(C)(C)O)n1 [AZD1775] (first compound max 10 µM, partner max 1 µM)
value-reported: 0.689
--
compound: CC1(C)CCC(CN2CCN(c3ccc(C(=O)NS(=O)(=O)c4ccc(NCC5CCOCC5)c([N+](=O)[O-])c4)c(Oc4cnc5[nH]ccc5c4)c3)CC2)=C(c2ccc(Cl)cc2)C1 [Venetoclax] + CN(C)CCCOc1ccc(-c2ccc3ncc4c(c3c2)n(C2CCOCC2)c(=O)n4C)cn1 [AZD0156] (first compound max 1 µM, 7x7, partner max 1 µM)
value-reported: 0.221

The values you see were collected from the supplement of paper PMC11061612.
